FYI, the data here is from ChEMBL document CHEMBL2216749.

Biological target: Phosphotyrosine-protein phosphatase PTPB (Mycobacterium tuberculosis, UniProt P96830)
Sequence (P96830 whole entry): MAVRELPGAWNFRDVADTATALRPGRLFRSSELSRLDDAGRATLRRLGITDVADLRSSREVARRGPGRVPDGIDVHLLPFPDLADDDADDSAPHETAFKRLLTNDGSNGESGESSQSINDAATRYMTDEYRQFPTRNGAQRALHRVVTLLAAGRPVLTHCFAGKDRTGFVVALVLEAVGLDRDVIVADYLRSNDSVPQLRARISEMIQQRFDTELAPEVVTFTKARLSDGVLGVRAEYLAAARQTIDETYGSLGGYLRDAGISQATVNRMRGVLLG
READOUT_NAME: pIC50
One number for each entry, as −log10 of the molar value.

Please fill in: pIC50 reported for O=C1CS(=O)(=O)C2(C(=O)N(Cc3ccc(Br)cc3)c3ccc([N+](=O)[O-])cc32)N1c1ccc(F)c(F)c1 (stereo unspecified) = 5.96

* * *

Molecular target: Human immunodeficiency virus type 1 integrase (Human immunodeficiency virus 1)
Sequence (Q7ZJM1 whole entry): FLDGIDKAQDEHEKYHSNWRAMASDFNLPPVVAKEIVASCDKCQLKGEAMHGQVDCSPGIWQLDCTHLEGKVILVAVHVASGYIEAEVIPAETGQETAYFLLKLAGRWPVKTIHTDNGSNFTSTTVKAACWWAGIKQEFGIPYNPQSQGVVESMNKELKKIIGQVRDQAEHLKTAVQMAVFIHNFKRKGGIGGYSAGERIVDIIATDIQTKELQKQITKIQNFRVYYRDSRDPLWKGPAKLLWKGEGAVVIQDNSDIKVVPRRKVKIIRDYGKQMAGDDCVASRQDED
Experiment: Inhibition of HIV1 integrase strand transfer activity
READOUT_NAME: pIC50
Give bare numbers, as −log10 of the molar value.

Record summary for O=C(Nc1ccc(O)cc1)C(=S)NN1C(=O)/C(=C\c2cc(I)cc(I)c2O)SC1=S : reported pIC50 = 5.52

* * *

Target: Follicle-stimulating hormone receptor (Homo sapiens)
Assay: Agonist activity at human FSH receptor by cAMP-based assay
Format: functional
READOUT_NAME: pEC50
Give bare numbers, as −log10 of the molar value.

The compound CCOc1cc(CCNC(=O)C[C@H]2S[C@@H](c3ccc(C#Cc4ccccc4)cc3)NC2=O)ccc1OC , tested on Follicle-stimulating hormone receptor (Homo sapiens), showed pEC50 of 7.10

* * *

Assay: Inhibition of HIV reverse transcriptase
Parameters: species or system Human immunodeficiency virus
READOUT_NAME: IC50 (nM)
One number for each entry, in nM.

Query Cc1nc(N2C(=O)CSC2c2ccccc2Cl)nc(C)c1C (stereo unspecified) yields IC50 of 2950

* * *

Target: Human immunodeficiency virus type 1 integrase (Human immunodeficiency virus 1)
Experiment: Inhibition of HIV1 integrase 3' processing activity
READOUT_NAME: pIC50
Answers are plain numbers, as −log10 of the molar value.

Lab book: pIC50 of O=C(Nc1ccc(O)cc1)C(=S)NN1C(=O)/C(=C\c2cc(I)cc(I)c2O)SC1=S noted as 5.15

* * *

Target: Follicle-stimulating hormone receptor (Homo sapiens, UniProt P23945)
Sequence (P23945 whole entry): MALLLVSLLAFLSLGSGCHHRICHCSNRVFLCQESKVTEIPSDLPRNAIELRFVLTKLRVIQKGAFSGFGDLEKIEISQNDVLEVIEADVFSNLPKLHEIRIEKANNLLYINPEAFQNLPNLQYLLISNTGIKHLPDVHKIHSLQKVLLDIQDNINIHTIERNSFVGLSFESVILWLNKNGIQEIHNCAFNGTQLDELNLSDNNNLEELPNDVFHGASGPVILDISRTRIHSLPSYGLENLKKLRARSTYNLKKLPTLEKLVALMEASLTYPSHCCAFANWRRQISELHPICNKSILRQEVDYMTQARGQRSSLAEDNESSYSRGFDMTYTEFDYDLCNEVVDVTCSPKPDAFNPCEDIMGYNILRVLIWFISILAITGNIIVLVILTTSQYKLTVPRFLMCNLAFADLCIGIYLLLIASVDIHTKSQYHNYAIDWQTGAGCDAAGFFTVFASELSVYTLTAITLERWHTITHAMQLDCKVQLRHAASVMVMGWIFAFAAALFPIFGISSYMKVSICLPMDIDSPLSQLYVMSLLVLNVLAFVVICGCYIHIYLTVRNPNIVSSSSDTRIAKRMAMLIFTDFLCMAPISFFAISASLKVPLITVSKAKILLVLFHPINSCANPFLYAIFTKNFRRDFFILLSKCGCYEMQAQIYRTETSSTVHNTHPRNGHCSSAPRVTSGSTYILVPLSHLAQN
Test: Allosteric activation of human FSH receptor
READOUT_NAME: pEC50
One number for each entry, as −log10 of the molar value.

// recorded pEC50 for COc1ccc(CCNC(=O)C[C@H]2S[C@@H](c3ccc(C#Cc4ccccc4)cc3)N(c3ccc(C(N)=O)c(Cl)c3)C2=O)cc1OC : 9.00
